B1: LARP4 (parent)
chain: WTVANMEEIKKLTTDPDLILEVLR

variants of: B1; assay: protein stability index of a GFP-peptide fusion (GPS, HEK-293T) (PSI 1-6); higher = more stable; details: c terminus: a fixed tail appended;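 note: lentivirally expressed fusions sorted by FACS into six bins by GFP to DsRed ratio, PSI derived from sequencing read proportions per bin multiplied by bin number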
METRIC: protein stability index
// return a plain number; no unit text

CHAIN_SEQUENCE	protein stability index
WTVRNMEEIKKLTTDPDLILEVLR [A4R]	2.45
WTVANMEEIKKLTTDPDLQLEVLR [I19Q]	3.12
WTVANMEEIKKLTTDYDLILEVLR [P16Y]	1.91
WTVANMEEIKKLTTDPDLILEGLR [V22G]	2.48

Consider the variant WTVANMEEIKKLTTDPALILEVLR [D17A] and give its measured protein stability index. 2.09

Consider the variant WTVANMECIKKLTTDPDLILEVLR [E8C] and give its measured protein stability index. 2.25

Consider the variant WTVANMEEKKKLTTDPDLILEVLR [I9K] and give its measured protein stability index. 2.5

Consider the variant WTVANMEGIKKLTTDPDLILEVLR [E8G] and give its measured protein stability index. 1.56

Consider the variant WTVAWMEEIKKLTTDPDLILEVLR [N5W] and give its measured protein stability index. 1.76

Consider the variant WTVANMEEIKTLTTDPDLILEVLR [K11T] and give its measured protein stability index. 2.95

Consider the variant WTVANMEEIKKLHTDPDLILEVLR [T13H] and give its measured protein stability index. 1.97

Consider the variant WTVANMEEIKKLTTDPDLILEVLN [R24N] and give its measured protein stability index. 2.48

Consider the variant WTVANHEEIKKLTTDPDLILEVLR [M6H] and give its measured protein stability index. 1.79

Consider the variant WTVANMEEIKKHTTDPDLILEVLR [L12H] and give its measured protein stability index. 3.11

Consider the variant WTVANMTEIKKLTTDPDLILEVLR [E7T] and give its measured protein stability index. 1.91

Consider the variant WTVANMEEIKKLTDDPDLILEVLR [T14D] and give its measured protein stability index. 2.46
